experimental_target: T1, PUF4 RNA-binding domain (Saccharomyces cerevisiae, UniProt P25339 537-888)
T1 sequence: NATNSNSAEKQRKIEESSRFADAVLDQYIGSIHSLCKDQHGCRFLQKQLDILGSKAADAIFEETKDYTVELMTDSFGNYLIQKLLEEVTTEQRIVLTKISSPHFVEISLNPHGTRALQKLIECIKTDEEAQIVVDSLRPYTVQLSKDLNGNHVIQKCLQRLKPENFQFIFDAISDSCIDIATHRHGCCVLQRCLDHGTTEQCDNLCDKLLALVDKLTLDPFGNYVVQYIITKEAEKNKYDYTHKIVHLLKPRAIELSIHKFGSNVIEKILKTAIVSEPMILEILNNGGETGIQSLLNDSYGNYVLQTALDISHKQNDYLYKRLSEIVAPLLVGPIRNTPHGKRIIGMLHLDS
assay_explanation: Mg; RNA-MaP; 20 mM Na-HEPES pH 7.4, 30 mM KOAc, 0.75 mM MgCl2, 0.1% Tween-20, 5% glycerol, 0.1 mg/mL BSA, 2 mM DTT; 25 C; 0.0125-409.6 nM protein
applied_conditions: tags: N-His6-TEV cleaved; C-SNAP kept, Cy3B-labelled; label: tethered on chip by stalled RNA polymerase
measured_metric: pKd
The read-out pKd is expressed as -log10 of concentration in moles per litre.

| binder | pKd |
| --- | --- |
| UCUCUUUGUAUGUGGUUCUCUU (ssRNA) [Ic_S1_P5E.1_K5.1_C5.1_H5.1_A5.1_[T6G]_[A7T]_F5.1_[T8G]_[T9G]_[A10T]_T5.1] | 6.38 |

**Query** Give the measured pKd of UCUCUUUGUAAGUUGUUCUCUU (ssRNA) [Ic_S1_P5E.1_K5.1_C5.1_H5.1_A5.1_[T5A]_[T6G]_[A7T]_F5.1_[T9G]_[A10T]_T5.1] .
**Result** 6.31

**Query** Give the measured pKd of Ie_S2_P5E.1_K5.1_C5.1_H5.1_[+1TCC]_A5.1_F5.1_T5.1 (ssRNA) RNA: UUUGAUUAAUAUGAUAUCGUUCUUUCUUUCCGUAUUAUUAUUCUUUCUCGAUAUCAUAUUAAUCUUU .
**Result** 6.70

**Query** Give the measured pKd of UCUCUUCUUAUAUAUUACUUCUCUU (ssRNA) [Id_ii_S1_P4E.3_K4.2_C4.2_H4.2_A4.1_F4.1_T4.2_[G10C]] .
**Result** 7.74

**Query** Give the measured pKd of Ic_S4_P5E.1_K5.1_C5.1_H5.1_A5.1_[T5A]_[T6A]_[A7T]_F5.1_[T8C]_[T9A]_[A10G]_T5.1 (ssRNA) RNA: UUUGACAACUGAUCGUUCUUUCUUGUAAAUCAGUUCUUUCUCGAUCAGUUGUCUUU .
**Result** 6.74

**Query** Give the measured pKd of Id_ii_S2_P3E.3_K3.2_C3.2_[C-2T]_H3.2_A3.1_F3.1_T3.2_[T9G]_[A10C] (ssRNA) RNA: UUUGAUUAAUAUGAUAUCGUUCUUUCUUUUAUAUAUAGCUUCUUUCUCGAUAUCAUAUUAAUCUUU .
**Result** 6.56

**Query** Give the measured pKd of UCUCUUCUUUCUCGUAUAUAUAUCUCUU (ssRNA) [Ie_S1_P3E.2_K3.1_C3.2_H3.1_[+1TCTC]_A3.1_F3.1_T3.2] .
**Result** 6.58

**Query** Give the measured pKd of Ie_S2_P3E.2_K3.1_C3.2_H3.1_[+1CTT]_A3.1_F3.1_T3.2 (ssRNA) RNA: UUUGAUUAAUAUGAUAUCGUUCUUUCUCUUCUUGUAUAUAUAUUCUUUCUCGAUAUCAUAUUAAUCUUU .
**Result** 8.88

**Query** Give the measured pKd of UCUCUUUGUAAUUUGCUCUCUU (ssRNA) [Ic_S1_P5E.1_K5.1_C5.1_H5.1_A5.1_[T5A]_[A7T]_F5.1_[T9G]_[A10C]_T5.1] .
**Result** 7.09

**Query** Give the measured pKd of Ic_S4_P5E.1_K5.1_C5.1_H5.1_A5.1_[A7T]_F5.1_[T8G]_[T9C]_[A10C]_T5.1 (ssRNA) RNA: UUUGACAACUGAUCGUUCUUUCUUGUAUUUGCCUUCUUUCUCGAUCAGUUGUCUUU .
**Result** 7.00

**Query** Give the measured pKd of UCUCUUUGUAGCUGUAUCUCUU (ssRNA) [Ic_S1_P5E.1_K5.1_C5.1_H5.1_A5.1_[T5G]_[T6C]_[A7T]_F5.1_[T8G]_T5.1] .
**Result** 7.32
